tested on: HMVEC cells stimulated with b-FGF; assay: b-FGF driven HMVEC proliferation screen; assay type: cell-based; conditions: b-FGF 2.5 ng/mL, 6 days, Alamar blue; read-out: b-FGF LC50

compound | CC50 / µM
O=C(Nc1cccc2cccnc12)c1cc(SCc2ccccc2)ccn1 | 0.19
COc1ccc(NC(=O)c2ccccn2)c2ncccc12 | 0.11
COc1cc(NC(=O)c2cc(N3CCN(C)CC3)ccn2)c2ncccc2c1 [Compound 105] | 0.12
CN1CCN(c2ccnc(C(=O)Nc3cccc4cccnc34)c2)CC1 [Compound 101] | 0.014
CN1CCN(c2ccnc(C(=O)Nc3cccc4cccnc34)c2)CC1 [Compound 34] | 0.018
CN1CCC[C@H]1C(=O)Nc1cccc2cccnc12 [Compound 107] | 0.41
CN1CCC[C@H]1C(=O)Nc1cccc2cccnc12 [Compound 58] | 0.17
O=C(Nc1cccc2cccnc12)c1cc(N2CCSCC2)ccn1 | 0.25
O=C(Nc1ccc(Oc2ccccc2)c2cccnc12)c1ccccn1 | 1
CN1CCN(c2ccc(NC(=O)c3ccccn3)c3ncccc23)CC1 | 0.028
O=C(Nc1cccc2cccnc12)c1cc(N2CCC(N3CCCC3)CC2)ccn1 | 0.033
O=C(Nc1cccc2cccnc12)c1cc(N2CCCCC2)ccn1 | 0.22
O=C(Nc1cccc2cccnc12)c1ccc(-c2ccccc2)cn1 | 6.1
O=C(Nc1cccc2cccnc12)c1cc(N2CCN(Cc3ccccc3)CC2)ccn1 | 0.9
CN(C)CCN(C)c1ccc(NC(=O)c2ccccn2)c2ncccc12 | 2.4
